Consider the following compounds; for each one, report its melting point.

Request: Which melting point is listed for CCOc1cc2c(cc1OC)-c1c(C#N)c(-c3cc(C)c(O)c(C)c3)c(C)n1C(C)C2 (stereo not shown) ?
Response: 232 to 234 °C

Request: Which melting point is listed for COc1cc2c(cc1OC)-c1c(C#N)c(-c3cccc4ccccc34)c(C)n1CC2 ?
Response: 226 to 229 °C

Request: Which melting point is listed for COC(=O)CCc1c(-c2ccncc2)c(C#N)c2n1CCc1cc(OC)c(OC)cc1-2 ?
Response: 191 to 193 °C

Request: Which melting point is listed for COC(=O)c1c(-c2cc(C)c(O)c(C)c2)c(C)n2c1-c1cc(OC)c(OC)cc1CC2C (stereo not shown) ?
Response: 177 to 179 °C

* * *

Consider the following molecules; for each one, report its melting point.

Request: Which melting point is listed for COc1cc2c(cc1OC)-c1c(C#N)c(-c3ccnc(C)c3)c(C)n1C(C)C2 (stereo not shown) [Example 45] ?
Response: 187 to 189 °C

Request: Which melting point is listed for COc1cc2c(cc1OC)-c1c(C)c(-c3cc(C)c(O)c(C)c3)c(C)n1CC2 [Example 68] ?
Response: 183 to 185 °C

Request: Which melting point is listed for COc1cc2c(cc1OC)-c1c(C#N)c(-c3cn(S(C)(=O)=O)c4ccccc34)c(C)n1C(C)C2 (stereo not shown) [Example 40] ?
Response: 219 to 221 °C

Request: Which melting point is listed for CCOC(=O)c1c(-c2cccc(N(C)C)c2)c(C)n2c1-c1cc(OC)c(OC)cc1CC2(C)C [Example 4] ?
Response: 101 to 102 °C
